- system: T1, Human serum albumin (human, UniProt P02768 25-609)
- T1 construct: also called HSA
- experimental-protocol: BLI (Octet) as in Example 1, His-tagged VHH, HSA
measurement-name: kon (M⁻¹ s⁻¹)
Expressed in M⁻¹ s⁻¹, but write only the number.

Example cases with answers are listed next.
HS10 (VHH, not shown: C-terminal His-tag) VHH: EVQLVESGGGLVQPGGSLRLSCAASGSTDSAYRMGWFRQAPGKEREFVSAINWSDGRTYYADSVKGRFTISRDNSKNTLYLQMNSLRAEDTAVYYCAADPDSRLYYTVPQNYDYWGQGTLVTVSS = 27700
HS6 (VHH, not shown: C-terminal His-tag) VHH: EVQLVESGGGLVQAGGSLRLSCAASGRIFHTYAVGWFRQAPGKERESVVIINWSSDHTYVAQSVKGRFTISRDRAKNTFYLQMNSLKPEDTAVYYCAVRRRLYGLRESDFDSWGQGTQVTVSS = 1.67e+06
HS12 (VHH, not shown: C-terminal His-tag) VHH: QVQLVESGGGSVQAGGSLRLSCAASGRTFISFSMGWFRQAPGKEREFVASITNSGSGILYGDSVKGRFTISRDNAKNTMYLQMNSLKPEDTAVYYCAAGTGAGRYRYASMFDYWGQGTQVTVSS = 1.03e+06

Then this binder:
// field: kon; key: HS5 (VHH, not shown: C-terminal His-tag) VHH: EVQLVESGGGLVQAGGSLRLSCAASGRTFTTHAMGWFRQAPGKEREFVATINWGGRTTYYADSVKGRFIISRDTGANTVYLQMNSLKPEDTAVYYCASNLDTYNVRAGTTNSWGQGTQVTVSS ; value = 809000
